Attribution: patent US7163919B2

# test method notes: MTT cellular viability assay, 293
# Format: cell-based
# measurement parameters: human, 293 cells (human kidney epithelial cell line, ATCC CRL-1573), Example 7, FIG. 5, normal cell line 293
metric name: viability at 24 h

Quick note, viability at 24 h for CC(=O)O[C@H]1C(=O)[C@@]2(C)[C@H]([C@H](OC(=O)c3ccccc3)[C@]3(O)C[C@H](OC(=O)[C@H](O)[C@@H](NC(=O)c4ccccc4)c4ccccc4)C(C)=C1C3(C)C)[C@]1(OC(C)=O)CO[C@@H]1C[C@@H]2O landed at 20 to 25%
